Reference source: paper PMC2756588

Biological target: T1, Lsb1, P53281
T1 sequence (P53281 45-122, looked up): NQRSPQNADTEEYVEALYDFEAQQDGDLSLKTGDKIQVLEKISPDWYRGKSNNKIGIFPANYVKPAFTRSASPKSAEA
Test: SPOT array
Settings: median of control spots 388
Mark each entry T if its SPOT intensity sits below 7, and F for all others.

Solved entries (count: 5):
1. DTFLPPPPPPPSNFE | T
2. RLSFFFPLDPAYIRN | T
3. QPQRTAPKPPISAPR | T
4. AGKRRLPLVRFKASD | F
5. TPTSGPPLLPPRNTM | F

Moving on to another binder below.
# strict comparison: is reported SPOT intensity < 7? input = FHLNPKRSAVLYDRP
T
